The measured values listed here are drawn from PubChem BioAssay (NCI).

Reported values of TGI for individual entries
tested on: UACC-62 melanoma; test: NCI tumour cell line growth inhibition, 48 h

molecule: CO/C(=N\N=C\c1ccc(OC)c(OC)c1)c1ccncc1
targetDesc: UACC-62 melanoma
TGI: > 10 µM

Tell me the measured TGI of C[C@]12CC[C@@H]3c4cc(OCC(F)(F)F)c(O)cc4CC[C@H]3[C@@H]1CC[C@@H]2O , please.
17.3 µM

# get_value(readout='TGI', item= CC(=O)CN(Cc1cc(C)c2c(c1)c1ccccc1n2Cc1ccccc1)S(=O)(=O)c1ccc(C)cc1 )
> 100 µM

Tell me the measured TGI of Cc1ccccc1-n1c(=O)c2ncn(C3CCCO3)c2n(-c2ccccc2C)c1=S (stereo not given) , please.
> 100 µM

Can you share its TGI? I mean this molecule: CCN1CCC(C)OP1(=O)Cc1ccccc1 (stereo not given)
> 100 µM

Quick one: TGI for CN(C)CCCN1c2ccccc2Sc2ccc3ccccc3c21 ?
9.62 µM

Request the reported TGI associated with CCCN(CCS(C)(=O)=O)Cc1ccc(-c2ccc3ncnc(Nc4ccc(OCc5cccc(F)c5)c(Cl)c4)c3c2)o1
> 25 µM

# get_value(readout='TGI', item= OCC1OC(n2cnc3c(N/N=C\c4ccccn4)ncnc32)C(O)C1O (stereo not given) )
4.05 µM

State the recorded TGI for this entry: CCCc1c(-c2ccccc2)[nH]c2ccccc2c1=O
> 100 µM

Please report the recorded TGI for N#CC(=C1C=CC(=NO)C=C1)c1ccc(Cl)cc1 .
21 µM
